TGT: human Siglec-7 on primary human monocyte-derived dendritic cells (human, UniProt Q9Y286 19-467)
Sequence (Q9Y286 19-467): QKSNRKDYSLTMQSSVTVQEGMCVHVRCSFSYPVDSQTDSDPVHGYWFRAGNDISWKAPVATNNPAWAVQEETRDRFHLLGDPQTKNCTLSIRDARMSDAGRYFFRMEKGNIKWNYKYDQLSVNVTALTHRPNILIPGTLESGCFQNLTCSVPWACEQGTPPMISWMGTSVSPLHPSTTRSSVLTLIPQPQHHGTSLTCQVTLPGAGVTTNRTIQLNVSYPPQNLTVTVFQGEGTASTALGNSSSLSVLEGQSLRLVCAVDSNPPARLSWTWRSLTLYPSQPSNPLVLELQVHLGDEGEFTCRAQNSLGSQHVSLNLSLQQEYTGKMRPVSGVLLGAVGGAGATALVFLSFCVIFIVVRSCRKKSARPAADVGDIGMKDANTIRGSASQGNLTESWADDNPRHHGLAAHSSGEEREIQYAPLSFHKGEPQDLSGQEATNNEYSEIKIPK
ASSAY_NOTES: cell-based or functional assay
ASSAY_METRIC: Fold increase in potency compared to AB-H8 (fold)

BINDER | DISPLAY_UNIT | REPORTED_RESULT
S7AB-H8.10.1 (antibody, V domains shown) VH: QVQLVQSGAEVKKPGASVKVSCKASGYAFTEAWMNWVRQAPGQRLEWIGRIFPGYGHTNYAQKFQGRATLTEDTSTSTAYMELSSLRSEDTAVYYCARDYSDYYFDYWGQGTLVTVSS VL: DIQMTQSPSSLSASVGDRVTITCRGSQDINTYLNWYQQKPGKAPKLLIYYTSRLHSGVPSRFSGSGSGTDYTLTISSLQPEDFATYYCQQGNTKPWTFGQGTKLEIK | fold | 2.4
S7AB-H8.45.2 (antibody, V domains shown) VH: QVQLVQSGAEVKKPGASVKVSCKASGYAFTEAWMNWVRQARGQRLEWIGRIFPGYGHTNYAQKFQGRATLTEDTSTSTAYMELSSLRSEDTAVYYCARDYSDYYFDYWGQGTLVTVSS VL: DIQMTQSPSSLSASVGDRVTITCRGSQDINTYLNWYQQKPGKAPKLLIYYTSRLHSGVPSRFSGSGSGTDYTLTISSLQPEDFATYYCQQGNILPWTFGQGTKLEIK | fold | 3.3
S7AB-H8.45.1 (antibody, V domains shown) VH: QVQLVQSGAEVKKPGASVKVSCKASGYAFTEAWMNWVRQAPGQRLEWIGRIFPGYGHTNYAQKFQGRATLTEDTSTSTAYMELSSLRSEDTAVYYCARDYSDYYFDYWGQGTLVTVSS VL: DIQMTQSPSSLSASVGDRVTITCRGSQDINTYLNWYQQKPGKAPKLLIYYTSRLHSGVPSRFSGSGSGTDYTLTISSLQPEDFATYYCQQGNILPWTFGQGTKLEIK | fold | 3.7
S7AB-H8.32 (antibody, V domains shown) VH: QVQLVQSGAEVKKPGASVKVSCKASGYAFTMAWMNWVRQAPGQGLEWIGRIFPGYGHTNYAQKFQGRATLTEDTSTSTAYMELSSLRSEDTAVYYCARDYSDYYFDYWGQGTLVTVSS VL: DIQMTQSPSSLSASVGDRVTITCRGSQDINTYLNWYQQKPGKAPKLLIYYTSRLHSGVPSRFSGSGSGTDYTLTISSLQPEDFATYYCQQGGTLPWTFGQGTKLEIK | fold | 3.7
S7AB-H8.29 (antibody, V domains shown) VH: QVQLVQSGAEVKKPGASVKVSCKASGYAFTAAWMNWVRQAPGQGLEWIGRIFPGLGHTNYAQKFQGRATLTEDTSTSTAYMELSSLRSEDTAVYYCARDYSDYYFDYWGQGTLVTVSS VL: DIQMTQSPSSLSASVGDRVTITCRASQDANTYLNWYQQKPGKAPKLLIYYTSRLHSGVPSRFSGSGSGTDYTLTISSLQPEDFATYYCQQGNLLPWTFGQGTKLEIK | fold | 6.7
S7AB-H8.29.1 (antibody, V domains shown) VH: QVQLVQSGAEVKKPGASVKVSCKASGYAFTAAWMNWVRQAPGQRLEWIGRIFPGLGHTNYAQKFQGRATLTEDTSTSTAYMELSSLRSEDTAVYYCARDYSDYYFDYWGQGTLVTVSS VL: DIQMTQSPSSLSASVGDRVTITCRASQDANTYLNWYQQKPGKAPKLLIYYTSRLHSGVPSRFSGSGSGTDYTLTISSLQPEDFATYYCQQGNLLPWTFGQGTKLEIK | fold | 6.8
S7AB-H8.30.2 (antibody, V domains shown) VH: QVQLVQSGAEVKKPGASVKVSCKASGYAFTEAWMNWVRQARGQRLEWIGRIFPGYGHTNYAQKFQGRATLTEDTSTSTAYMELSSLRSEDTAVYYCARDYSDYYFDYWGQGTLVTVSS VL: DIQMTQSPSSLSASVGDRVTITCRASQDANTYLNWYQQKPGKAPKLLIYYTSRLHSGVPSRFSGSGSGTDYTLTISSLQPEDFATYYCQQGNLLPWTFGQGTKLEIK | fold | 3.2
S7AB-H8.24 (antibody, V domains shown) VH: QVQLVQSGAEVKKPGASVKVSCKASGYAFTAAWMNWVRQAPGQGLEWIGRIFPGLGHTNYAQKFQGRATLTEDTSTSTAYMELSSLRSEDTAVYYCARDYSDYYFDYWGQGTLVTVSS VL: DIQMTQSPSSLSASVGDRVTITCRASEDINTYLNWYQQKPGKAPKLLIYYTSRLHSGVPSRFSGSGSGTDYTLTISSLQPEDFATYYCQQGGTLPWTFGQGTKLEIK | fold | 2.6
S7AB-H8.30 (antibody, V domains shown) VH: QVQLVQSGAEVKKPGASVKVSCKASGYAFTEAWMNWVRQAPGQGLEWIGRIFPGYGHTNYAQKFQGRATLTEDTSTSTAYMELSSLRSEDTAVYYCARDYSDYYFDYWGQGTLVTVSS VL: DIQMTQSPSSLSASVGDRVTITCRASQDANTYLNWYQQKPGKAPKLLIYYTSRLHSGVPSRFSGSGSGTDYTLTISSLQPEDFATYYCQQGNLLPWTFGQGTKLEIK | fold | 2.7
S7AB-H8.21 (antibody, V domains shown) VH: QVQLVQSGAEVKKPGASVKVSCKASGYAFTETWMNWVRQAPGQGLEWIGRIFPGLGHTNYAQKFQGRATLTEDTSTSTAYMELSSLRSEDTAVYYCARDYSDYYFDYWGQGTLVTVSS VL: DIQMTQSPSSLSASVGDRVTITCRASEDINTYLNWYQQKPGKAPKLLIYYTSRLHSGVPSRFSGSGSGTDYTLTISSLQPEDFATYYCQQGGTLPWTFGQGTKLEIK | fold | 2.2
